Assay: Confirmation Concentration-Response Assay for Agonists of the Thyroid Stimulating Hormone Receptor
Conditions: HEK293 TSHR-CNG cells, membrane potential dye, cAMP; measured here: parental HEK293 counter-screen max
Records with an inconclusive call do not appear.
readoutLabel: max response (%)
Expressed in %, but write only the number.

> print(dat)
                                   compound  unitannotation  recordedresult
1  O=C(CN(Cc1ccccc1Cl)C(=O)Cn1nnc(-c2cccs2)n1)NCC1CCCO1 (configuration not stated)               %            8.66
2  Cc1cc(-n2c(C)cc(C(=O)CSc3nnnn3-c3ccc(Cl)cc3)c2C)no1               %            13.5
3               Cc1cc(SCNC(=O)c2ccccc2)ncn1               %           -2.72
4  Cc1ccccc1NC(=O)CSc1nnc(-c2ccoc2C)n1CCc1ccccc1               %            20.3
5  COc1ccc(S(=O)(=O)NCCC(=O)NCc2ccc(F)cc2)cc1               %           -8.89

Lookup result for `Nc1ccc2c(c1)COc1ccccc1O2` ; measured max response: -5.76

Lookup result for `CCC(C)(C)n1nnnc1CN(Cc1ccco1)Cc1cc2cc3c(cc2[nH]c1=O)OCO3` ; measured max response: -12.1

----------
Molecular target: Thyrotropin receptor (Homo sapiens) (UniProt P16473)
Sequence (P16473 whole entry, looked up): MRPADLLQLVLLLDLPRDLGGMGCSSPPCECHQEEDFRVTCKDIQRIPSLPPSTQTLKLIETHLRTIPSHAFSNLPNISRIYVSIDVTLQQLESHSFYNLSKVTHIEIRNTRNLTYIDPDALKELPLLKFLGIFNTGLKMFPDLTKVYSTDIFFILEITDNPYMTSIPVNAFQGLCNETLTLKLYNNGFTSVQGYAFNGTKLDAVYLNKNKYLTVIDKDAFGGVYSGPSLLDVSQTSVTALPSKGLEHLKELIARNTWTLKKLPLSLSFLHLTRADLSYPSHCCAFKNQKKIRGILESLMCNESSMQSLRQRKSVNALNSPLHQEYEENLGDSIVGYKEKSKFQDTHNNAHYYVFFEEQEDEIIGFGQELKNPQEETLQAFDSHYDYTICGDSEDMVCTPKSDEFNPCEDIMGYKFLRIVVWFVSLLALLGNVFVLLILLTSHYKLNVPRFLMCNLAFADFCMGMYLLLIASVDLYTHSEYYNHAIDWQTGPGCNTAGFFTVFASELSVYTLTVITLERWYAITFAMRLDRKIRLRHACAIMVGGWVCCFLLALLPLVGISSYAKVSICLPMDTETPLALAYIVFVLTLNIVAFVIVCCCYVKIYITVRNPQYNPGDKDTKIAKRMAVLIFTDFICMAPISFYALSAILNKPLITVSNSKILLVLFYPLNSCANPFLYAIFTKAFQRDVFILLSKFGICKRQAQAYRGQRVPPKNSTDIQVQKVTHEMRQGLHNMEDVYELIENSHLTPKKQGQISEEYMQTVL
Experiment: Confirmation Concentration-Response Assay for Agonists of the Thyroid Stimulating Hormone Receptor; on activation: % of control where 0% means no effect
Conditions: HEK293 TSHR-CNG cells, membrane potential dye, cAMP; series mostly up to 25.6 µM
Records with an inconclusive call do not appear. Activity calls are given as the source filed them. Calls follow the shape of the dose curve; as a rule, active = well fitted activation curve with a large enough effect in the main read-out, with a control signal flat; inconclusive = small, poorly fitted or top-dose-only effect, or effect the other way, or a change in a side signal; inactive = no such curve, though single readings can be large or run the other way.
// one of active, inactive, no free text

As a guide, the following entries are already answered.
> print(dat)
                                   molecule  category
1  CN1C(=O)C2C=CC1C1C(=O)N(c3ccccc3)C(=O)C21 (stereo unspecified)  inactive
2           O=S1(=O)N=C(Oc2ccccc2)c2ccccc21  inactive
3  COc1cccc(C2CC(c3ccccc3OC)n3nc(N)nc3N2)c1 (stereo unspecified)  inactive

stdin: Hello, I am checking results. What call was entered for `Cc1ccccc1NC(=O)CSc1nnc(-c2ccoc2C)n1CCc1ccccc1` ?
stdout: active

stdin: Hello, I am checking results. What call was entered for `CCC(C)(C)n1nnnc1CN(Cc1ccco1)Cc1cc2cc3c(cc2[nH]c1=O)OCO3` ?
stdout: inactive

stdin: Hello, I am checking results. What call was entered for CCSCCOC(=O)C1=C(C)N(C)C(=O)NC1c1cc(OC)ccc1OC (stereo unspecified) ?
stdout: inactive

stdin: Hello, I am checking results. What call was entered for `CN(Cc1ccco1)C(=O)Cn1c(=O)oc2cc(S(=O)(=O)NCc3ccccc3)ccc21` ?
stdout: active

stdin: Hello, I am checking results. What call was entered for CCS(=O)(=O)N1CCN(C(C)CCc2ccccc2)CC1 (stereo unspecified) ?
stdout: inactive

stdin: Hello, I am checking results. What call was entered for O=C(C1COc2ccccc2O1)N1CCCC1 (stereo unspecified) ?
stdout: inactive

stdin: Hello, I am checking results. What call was entered for `Nc1ccc2c(c1)COc1ccccc1O2` ?
stdout: inactive

stdin: Hello, I am checking results. What call was entered for `Cc1occc1-c1nnc(SCC(=O)NCc2ccc3c(c2)OCO3)n1CC(C)C` ?
stdout: active
